Give measured DC50 for each item. Keep answers brief.
- tested system: SMARCA4 (Homo sapiens, UniProt P51532)
- Construct: SMARCA2/SMARCA4 protein degradation selectivity in MV4-11 cells; endogenous in cells; host or cells: MV4-11
- Sequence (P51532 whole entry): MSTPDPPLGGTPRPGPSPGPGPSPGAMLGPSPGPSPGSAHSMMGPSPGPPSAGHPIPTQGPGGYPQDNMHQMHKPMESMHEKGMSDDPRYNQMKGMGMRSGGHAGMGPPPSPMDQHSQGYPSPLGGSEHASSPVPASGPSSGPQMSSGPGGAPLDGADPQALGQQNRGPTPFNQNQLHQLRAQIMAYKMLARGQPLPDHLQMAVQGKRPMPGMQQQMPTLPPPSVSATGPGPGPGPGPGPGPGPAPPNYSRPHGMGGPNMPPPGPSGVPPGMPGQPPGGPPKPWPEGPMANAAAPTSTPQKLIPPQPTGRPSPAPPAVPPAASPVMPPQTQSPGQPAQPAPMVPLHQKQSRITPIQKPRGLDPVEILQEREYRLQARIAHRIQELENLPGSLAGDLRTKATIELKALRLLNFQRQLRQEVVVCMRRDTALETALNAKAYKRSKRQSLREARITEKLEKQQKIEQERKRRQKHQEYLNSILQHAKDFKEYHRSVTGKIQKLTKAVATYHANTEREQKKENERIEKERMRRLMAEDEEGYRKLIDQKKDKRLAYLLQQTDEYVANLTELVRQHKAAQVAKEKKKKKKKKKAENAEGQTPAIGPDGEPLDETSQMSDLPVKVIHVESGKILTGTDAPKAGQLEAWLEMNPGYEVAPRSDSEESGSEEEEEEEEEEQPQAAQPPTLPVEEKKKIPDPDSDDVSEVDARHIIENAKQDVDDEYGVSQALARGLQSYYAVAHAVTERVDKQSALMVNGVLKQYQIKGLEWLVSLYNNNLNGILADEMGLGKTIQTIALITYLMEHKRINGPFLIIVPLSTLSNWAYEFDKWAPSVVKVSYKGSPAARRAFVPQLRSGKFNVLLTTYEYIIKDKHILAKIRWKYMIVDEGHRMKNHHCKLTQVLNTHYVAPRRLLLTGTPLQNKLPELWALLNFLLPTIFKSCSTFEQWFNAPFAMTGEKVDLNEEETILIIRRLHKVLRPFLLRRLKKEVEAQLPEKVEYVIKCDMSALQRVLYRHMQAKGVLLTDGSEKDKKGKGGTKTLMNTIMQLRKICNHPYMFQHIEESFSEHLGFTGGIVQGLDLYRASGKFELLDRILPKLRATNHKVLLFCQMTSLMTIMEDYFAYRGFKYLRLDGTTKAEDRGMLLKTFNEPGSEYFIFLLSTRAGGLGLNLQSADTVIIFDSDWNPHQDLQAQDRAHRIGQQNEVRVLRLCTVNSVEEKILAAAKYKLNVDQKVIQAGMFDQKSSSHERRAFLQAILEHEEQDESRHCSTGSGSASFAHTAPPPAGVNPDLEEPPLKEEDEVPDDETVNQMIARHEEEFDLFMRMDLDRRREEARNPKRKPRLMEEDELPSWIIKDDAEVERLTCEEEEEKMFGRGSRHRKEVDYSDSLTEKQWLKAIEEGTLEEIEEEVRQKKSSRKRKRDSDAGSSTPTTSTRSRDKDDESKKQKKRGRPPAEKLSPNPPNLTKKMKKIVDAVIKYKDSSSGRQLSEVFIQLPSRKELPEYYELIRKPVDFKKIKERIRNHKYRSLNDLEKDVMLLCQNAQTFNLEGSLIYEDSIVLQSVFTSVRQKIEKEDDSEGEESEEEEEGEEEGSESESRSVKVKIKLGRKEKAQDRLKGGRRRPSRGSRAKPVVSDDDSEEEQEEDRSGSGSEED
- assay protocol: SMARCA4 Western blot degradation in MV4-11 cells
- Type: cell-based
- stated conditions: MV4-11 cells, 24 h; read-out: SMARCA4 MSD MV411 degradation 24 h: Mean external-Abs DC50

[in] Would you mind telling me what DC50 value was observed for C#Cc1ccc(CNC(=O)[C@@H]2C[C@@H](O)CN2C(=O)[C@@H](NC(=O)[C@H]2CC3(C2)C[C@H](N2CCC(N4CCC(N5CCN6c7cc(-c8ccccc8O)nnc7NC[C@H]6C5)CC4)CC2)C3)C(C)(C)CCO)cc1 (single isomer, unassigned) [I-365] ?
[out] > 0.1 µM

[in] Would you mind telling me what DC50 value was observed for "C#Cc1ccc(CNC(=O)[C@@H]2C[C@@H](O)CN2C(=O)[C@@H](NC(=O)N2CC3(CC(N4CCC(c5cnc(N6CCc7[nH]c8nnc(-c9ccccc9O)cc8c7[C@H]6C)nc5)CC4)C3)C2)C(C)(C)C)cc1F" ?
[out] > 0.1 µM

[in] Would you mind telling me what DC50 value was observed for C#Cc1ccc(CNC(=O)[C@@H]2C[C@@H](O)CN2C(=O)[C@@H](NC(=O)[C@H]2CC3(C2)C[C@H](N2CCC(N4CCC(N5CCN6c7cc(-c8ccccc8O)nnc7NC[C@H]6C5)CC4)CC2)C3)C(C)(C)C)c(Cl)c1 (single isomer, unassigned) [I-230] ?
[out] > 0.1 µM

[in] Would you mind telling me what DC50 value was observed for "C#Cc1ccc(CNC(=O)[C@@H]2C[C@@H](O)CN2C(=O)[C@@H](NC(=O)N2CC3(CC(N4CC5(CC(N6CCC(N7CCc8[nH]c9nnc(-c%10ccccc%10O)cc9c8[C@H]7C)CC6)C5)C4)C3)C2)C(C)(C)C)cc1" ?
[out] > 0.1 µM

[in] Would you mind telling me what DC50 value was observed for C#Cc1ccc(CNC(=O)[C@@H]2C[C@@H](O)CN2C(=O)[C@@H](NC(=O)C2CCN(CC3CCC(N4CCC(N5CCc6[nH]c7nnc(-c8ccccc8O)cc7c6[C@H]5C)CC4)CC3)CC2)C(C)(C)C)cc1 (stereo partly shown) ?
[out] > 0.1 µM

[in] Would you mind telling me what DC50 value was observed for C#Cc1ccc(CNC(=O)[C@@H]2C[C@@H](O)CN2C(=O)[C@@H](NC(=O)[C@H]2CCC3(CC2)C[C@H](N2CCC(c4cnc(N5CCN6c7cc(-c8ccccc8O)nnc7NC[C@H]6C5)nc4)CC2)C3)C(C)(C)C)c(OC)c1 (single isomer, unassigned) [I-100] ?
[out] 0.01 to 0.1 µM

[in] Would you mind telling me what DC50 value was observed for "C#Cc1ccc(CNC(=O)[C@@H]2C[C@@H](O)CN2C(=O)[C@@H](NC(=O)N2CCN(C[C@H]3CC[C@@H](N4CCC(N5CCN6c7cc(-c8ccccc8O)nnc7NC[C@H]6C5)CC4)CC3)CC2)C(C)(C)C)cc1" ?
[out] > 0.1 µM

[in] Would you mind telling me what DC50 value was observed for Cc1ncsc1-c1ccc(CNC(=O)[C@@H]2C[C@@H](O)CN2C(=O)C(c2cc(OCCCCN3CCC(c4cnc(N5CCN6c7cc(-c8ccccc8O)nnc7NC[C@@H]6C5)nc4)CC3)no2)C(C)C)cc1 (stereo partly shown) ?
[out] 0.001 to 0.01 µM

[in] Would you mind telling me what DC50 value was observed for C#Cc1ccc(CNC(=O)[C@@H]2C[C@@H](O)CN2C(=O)[C@@H](NC(=O)N2CCCC(N3CCC(c4cnc(N5CCN6c7cc(-c8ccccc8O)nnc7NC[C@H]6C5)nc4)CC3)C2)C(C)(C)C)cc1 (mixture of isomers) ?
[out] > 0.1 µM

[in] Would you mind telling me what DC50 value was observed for C#CCOc1cc(C(C(=O)N2C[C@H](O)C[C@H]2C(=O)NCc2ccc(-c3scnc3C)cc2O[C@H]2CC[C@@H](N3CCC(c4cnc(N5CCc6[nH]c7nnc(-c8ccccc8O)cc7c6[C@H]5C)nc4)CC3)CC2)C(C)C)on1 (single isomer, unassigned) ?
[out] < 0.001 µM

[in] Would you mind telling me what DC50 value was observed for Cn1nccc1-c1ccc(CNC(=O)[C@@H]2C[C@@H](O)CN2C(=O)[C@@H](NC(=O)[C@H]2CC[C@H](c3ccc(-c4cnc(N5CCN6c7cc(-c8ccccc8O)nnc7NC[C@H]6C5)nc4)cc3)CC2)C(C)(C)C)cc1 (single isomer, unassigned) ?
[out] 0.01 to 0.1 µM

[in] Would you mind telling me what DC50 value was observed for C#Cc1ccc([C@H](C)NC(=O)[C@@H]2C[C@@H](O)CN2C(=O)C(c2cc(N3CCC(N4CCC(N5CCC(CN6CCN7c8cc(-c9ccccc9O)nnc8NC[C@H]7C6)CC5)CC4)CC3)no2)C(C)C)cc1 (stereo partly shown) ?
[out] 0.01 to 0.1 µM

[in] Would you mind telling me what DC50 value was observed for "C#Cc1ccc([C@H](C)NC(=O)[C@@H]2C[C@@H](O)CN2C(=O)[C@@H](NC(=O)N2CC3(C2)CN(C2CCN(c4cnc(N5CCc6[nH]c7nnc(-c8ccccc8O)cc7c6[C@H]5C)nc4)CC2)C3)C(C)(C)C)cc1" ?
[out] > 0.1 µM

[in] Would you mind telling me what DC50 value was observed for "C#Cc1ccc(CNC(=O)[C@@H]2C[C@@H](O)CN2C(=O)[C@@H](NC(=O)c2ccc(N3CCC(N4CCC(N5CCN6c7cc(-c8ccccc8O)nnc7NC[C@H]6C5)CC4)CC3)cn2)C(C)(C)C)cc1" ?
[out] 0.01 to 0.1 µM

[in] Would you mind telling me what DC50 value was observed for "C#Cc1ccc([C@H](C)NC(=O)[C@@H]2C[C@@H](O)CN2C(=O)[C@@H](NC(=O)N2CC3(CC(N4CCN(c5cnc(N6CCc7[nH]c8nnc(-c9ccccc9O)cc8c7[C@H]6C)nc5)CC4)C3)C2)C(C)(C)CCO)cc1" ?
[out] > 0.1 µM

[in] Would you mind telling me what DC50 value was observed for C#Cc1ccc2c(c1)OCC[C@@H]2NC(=O)[C@@H]1C[C@@H](O)CN1C(=O)[C@@H](NC(=O)N1CC2(CC(N3CCC(c4cnc(N5CCc6[nH]c7nnc(-c8ccccc8O)cc7c6[C@H]5C)nc4)CC3)C2)C1)C(C)(C)C (single isomer, unassigned) ?
[out] > 0.1 µM
